System: Huh7 cells
test protocol: Cell viability endpoint assay (Thiazolyl Blue Tetrazolium Bromide)
Type: cell-based
run conditions: 72 h incubation, 11-point dose response
reported endpoint: CC50 (µM)
State just the number; it will be interpreted in µM.

Entry under review: Cc1ccc(S(=O)(=O)N[C@@H](Cc2ccccc2)C(=O)CCl)cc1 . Reported CC50?
3.3

###

test protocol: Cell viability endpoint assay (Thiazolyl Blue Tetrazolium Bromide)
Format: cell-based
run conditions: human, Huh7 cells (hepatoma cell line); 72 h incubation, 11-point dose response
reported endpoint: CC50 at 72 h (µM)
State just the number; it will be interpreted in µM.

Entry under review: C/C=C/C/C=C/CCC(=O)[C@H]1O[C@H]1C(N)=O . Reported CC50 at 72 h?
31.9

###

study target: JFH1 NS2–3 (NS2 autoprotease) (Hepatitis C virus genotype 2a, UniProt Q99IB8)
Construct: (JFH1 polyprotein residues 906–1209, J4 residues 904–1206); His tag (N)
Sequence (Q99IB8 906-1209): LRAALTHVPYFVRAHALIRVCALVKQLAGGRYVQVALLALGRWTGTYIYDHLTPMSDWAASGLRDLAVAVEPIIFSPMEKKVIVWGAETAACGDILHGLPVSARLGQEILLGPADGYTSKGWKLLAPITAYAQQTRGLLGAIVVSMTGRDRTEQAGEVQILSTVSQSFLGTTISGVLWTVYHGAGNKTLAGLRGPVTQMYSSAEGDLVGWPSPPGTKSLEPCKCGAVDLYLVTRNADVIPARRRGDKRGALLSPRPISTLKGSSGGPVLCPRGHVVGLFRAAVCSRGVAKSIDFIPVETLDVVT
test protocol: NS2–3 auto-processing (refolding) assay, JFH1
run conditions: JFH1 NS2–3 refolding reaction, 10-point dose response, NS3-FLAG product quantified by western blot
reported endpoint: pEC50
The read-out pEC50 is expressed as -log10 of concentration in moles per litre.

Entry under review: Cc1ccc(S(=O)(=O)N[C@@H](Cc2ccccc2)C(=O)CCl)cc1 [TPCK, Tosyl phenylalanine chloromethyl ketone] . Reported pEC50?
4.82
